# assay comment: qHTS RealTime-Glo MT Cell Viability Assay in HEK293 cells - 40 hour (AID 1224874); note: % is set by controls: 0 for no effect and ±100 for the full control effect
# assay setup: RealTime-Glo luminescence; stronger effect = lower value
Inconclusive results are not listed.
Documented max response across a set of compounds

| compound | quantity unit | max response |
| --- | --- | --- |
| CCC(C)(CCCC(C)C)OC(C)=O (centres undefined) | % | 6.35 |
| CCCCCCC#CC(=O)OC | % | 11.4 |
| CCCCCCCCN1CCCC1=O | % | -3.59 |
| c1ccc2sc(SN3CCOCC3)nc2c1 | % | 4.29 |
| CN1CC(=O)N/C1=N/C(=O)Nc1cccc(Cl)c1 | % | -14.4 |
| CCOC(=O)CCC(=O)OCC | % | 3.67 |
| O=C(c1ccccc1)C1(O)CCCCC1 | % | -2.37 |
| Nc1c2c(nc3c1CCC3)CCCC2 | % | 0.303 |
| C=COCC1CCC(COC=C)CC1 (centres undefined) | % | -3.6 |
| CC(C)c1ccc2ncccc2c1 | % | -0.522 |
| COc1cccc(OC)c1C(=O)N[C@@H]1C(=O)N2[C@@H]1SC(C)(C)[C@@H]2C(=O)O | % | 4.53 |
| O=C(O)c1cc(C(=O)O)cc(C(=O)O)c1 | % | 16.8 |
| CC(C)C[C@@H](N)C(=O)O | % | 5.97 |
| CCOC(=O)C1=NOC(c2ccccc2)(c2ccccc2)C1 | % | 3.23 |
| CCOCC(C)O (centres undefined) | % | -1.56 |
| N[C@H](C(=O)O)[C@@H](O)c1ccc(O)c(O)c1 | % | 0.604 |
| CC1=NN(c2cc(S(=O)(=O)O)ccc2Cl)C(=O)C1N=Nc1ccccc1 (centres undefined) | % | 8.94 |
| C=CCCCCCCCCC(=O)OCC | % | 3.1 |
| C=C(C)C(=O)OCC1CCCO1 (centres undefined) | % | 7.57 |
